Assay: BET inhibitor-based combinations targeting novel dependencies in MECOM-rearranged (r) AML: AML-194 cell line (AID 2202237; note: nearly all actives have a fitted effect of over 40% in size)
Conditions: AML-194 (MECOM-r AML) viability, CellTiter-Glo, 48 h; series mostly up to 46 µM
Records with an inconclusive call do not appear. Calls of active or inactive are those of the source. Calls come from the whole dose curve; as a rule, active = well fitted inhibition curve with a large enough effect; inconclusive = small, poorly fitted or top-dose-only effect; inactive = flat fitted curve, though single readings scatter.
Reply using exactly one outcome from 1 (active), -1 (inactive)

Completed entries (count: 5):
COC(c1ccccc1)(c1ccccc1)[C@H](Oc1nc(C)cc(C)n1)C(=O)O: -1
O=S(=O)(O)CCS: -1
O=C1c2c(O)ccc(O)c2C(=O)c2c(NCCNCCO)ccc(NCCNCCO)c21: 1
CCCn1c(=O)c2[nH]c(-c3cnn(Cc4cccc(C(F)(F)F)c4)c3)nc2n(CC)c1=O: -1
O=C(O)Cn1nnc(-c2cc(N3CCC(Oc4cc(F)ccc4Br)CC3)no2)n1: -1

Problem: Lab log entry: c1ccc2c(CCNc3ccc(Nc4ccncc4)cc3)c[nH]c2c1 — outcome as called in the assay?
Solution: 1

Problem: Lab log entry: CN1CCN(c2cc(C(=O)Nc3ccc4c(c3)-c3c(c(C(N)=O)nn3-c3ccc(F)cc3)CC4)c(Cl)cn2)CC1 — outcome as called in the assay?
Solution: 1

Problem: Lab log entry: COc1ccc2[nH]cc(CCNC(C)=O)c2c1 — outcome as called in the assay?
Solution: -1
